tested on: SW620M cells; assay: Synergy determination (Bliss model, SynergyFinder), SW620M; assay type: cell-based, human; settings: drug methotrexate + additive, Bliss model
quantity: synergy score

> print(dat)
                                   compound  system.tested       quantity  meas.value
1  O=C1N/C(=C/c2cccc(-[c-]3cccc3)c2)C(=O)N2CCC[C@@H]12.[Fe+2].c1cc[cH-]c1 [(S,E)-4c]   SW620M cells  synergy score       –2.83
2  O=C1N/C(=C\c2ccccc2-[c-]2cccc2)C(=O)N2CCC[C@@H]12.[Fe+2].c1cc[cH-]c1 [(S,Z)-4b]   SW620M cells  synergy score       –5.03
3  O=C1N/C(=C\[c-]2cccc2)C(=O)N2CCC[C@@H]12.[Fe+2].c1cc[cH-]c1 [(S,Z)-4a]   SW620M cells  synergy score       –3.78
4  O=C1N/C(=C\c2ccc(-[c-]3cccc3)cc2)C(=O)N2CCC[C@@H]12.[Fe+2].c1cc[cH-]c1 [(S,Z)-4d]   SW620M cells  synergy score       –5.20

----------
tested on: SW620C cells; assay: Synergy determination (Bliss model, SynergyFinder), SW620C; type: cell-based, human; conditions: drug cisplatin + additive, Bliss model
quantity: synergy score

> print(dat)
                                   compound  meas.value
1  O=C1N/C(=C\c2ccccc2)C(=O)N2CCC[C@@H]12 [(S,Z)-4e]       –3.14
2  O=C1N/C(=C/c2ccccc2)C(=O)N2CCC[C@@H]12 [(S,E)-4e]       –2.78
3  O=C1N/C(=C/c2cccc(-[c-]3cccc3)c2)C(=O)N2CCC[C@@H]12.[Fe+2].c1cc[cH-]c1 [(S,E)-4c]        0.39
4  O=C1N/C(=C\[c-]2cccc2)C(=O)N2CCC[C@@H]12.[Fe+2].c1cc[cH-]c1 [(S,Z)-4a]       –2.62
5  O=C1N/C(=C\c2ccccc2-[c-]2cccc2)C(=O)N2CCC[C@@H]12.[Fe+2].c1cc[cH-]c1 [(S,Z)-4b]       –2.78

----------
test system: SW620V cells (vincristine-resistant); assay: Neutral red uptake viability assay, SW620V; type: cell-based, human; details: 72 h, n = 3, read-out: Cytotoxic activity IC50 (95% CI)
# IC50 values compiled below
quantity: IC50

> print(dat)
                                   compound  meas.value
1  O=C1N/C(=C\c2ccccc2-[c-]2cccc2)C(=O)N2CCC[C@@H]12.[Fe+2].c1cc[cH-]c1 [(S,Z)-4b]     48.8 µM
2  O=C1N/C(=C/c2cccc(-[c-]3cccc3)c2)C(=O)N2CCC[C@@H]12.[Fe+2].c1cc[cH-]c1 [(S,E)-4c]    > 100 µM
3  O=C1N/C(=C\c2ccc(-[c-]3cccc3)cc2)C(=O)N2CCC[C@@H]12.[Fe+2].c1cc[cH-]c1 [(S,Z)-4d]    > 100 µM
4  O=C1N/C(=C\[c-]2cccc2)C(=O)N2CCC[C@@H]12.[Fe+2].c1cc[cH-]c1 [(S,Z)-4a]    > 100 µM

----------
system: SW620E cells; assay: Synergy determination (Bliss model, SynergyFinder), SW620E; assay type: cell-based, human; settings: drug etoposide + additive
# most synergistic area score values compiled below
quantity: most synergistic area score

> print(dat)
                                   compound                     quantity  meas.value
1  O=C1N/C(=C\c2ccccc2-[c-]2cccc2)C(=O)N2CCC[C@@H]12.[Fe+2].c1cc[cH-]c1 [(S,Z)-4b]  most synergistic area score       14.42
2  O=C1N/C(=C\c2ccc(-[c-]3cccc3)cc2)C(=O)N2CCC[C@@H]12.[Fe+2].c1cc[cH-]c1 [(S,Z)-4d]  most synergistic area score       26.95
3  O=C1N/C(=C\c2ccccc2)C(=O)N2CCC[C@@H]12 [(S,Z)-4e]  most synergistic area score        2.22
4  O=C1N/C(=C/c2ccccc2)C(=O)N2CCC[C@@H]12 [(S,E)-4e]  most synergistic area score        0.19
5  O=C1N/C(=C\[c-]2cccc2)C(=O)N2CCC[C@@H]12.[Fe+2].c1cc[cH-]c1 [(S,Z)-4a]  most synergistic area score       28.26
6  O=C1N/C(=C/c2cccc(-[c-]3cccc3)c2)C(=O)N2CCC[C@@H]12.[Fe+2].c1cc[cH-]c1 [(S,E)-4c]  most synergistic area score        1.22

----------
Tested on: ABCG2-overexpressing SW620C cells
Assay: MDR reversal assay (ERP), SW620C
Assay type: cell-based, human
Conditions: SW620C, drug alone, n = 3
Protocol: We investigated the potency of 4a–e to inhibit ABC transporters (ABCB1, ABCC1, and ABCG2) by determining their enhancement of reversal potency (ERP) values. […] In total, 104 cells in 100 µL of complete medium were plated per well of a 96-well plate and left overnight to allow cells to adhere to the surface. […] Absorbance was read at 540 nm using EnVision Multilabel Plate Reader (Perkin Elmer, USA). Results were expressed as % of control. […]
pIC50: −log10 of the molar value.
quantity: pIC50

> print(dat)
                                   compound  meas.value
1  N.N.[Cl][Pt][Cl] [Cisplatin, reference compound]        4.55

----------
system: SW620E cells (etoposide-resistant); assay: Neutral red uptake viability assay, SW620E; assay type: cell-based, human; conditions: 10 μM, 72 h, n = 3, ± SD
# survival rate values compiled below
quantity: survival rate (%)

> print(dat)
                                   molecule  meas.value
1  O=C1N/C(=C\c2ccc(-[c-]3cccc3)cc2)C(=O)N2CCC[C@@H]12.[Fe+2].c1cc[cH-]c1 [(S,Z)-4d]          94
2  O=C1N/C(=C\[c-]2cccc2)C(=O)N2CCC[C@@H]12.[Fe+2].c1cc[cH-]c1 [(S,Z)-4a]          94
3  O=C1N/C(=C/c2cccc(-[c-]3cccc3)c2)C(=O)N2CCC[C@@H]12.[Fe+2].c1cc[cH-]c1 [(S,E)-4c]          91
4  O=C1N/C(=C\c2ccccc2)C(=O)N2CCC[C@@H]12 [(S,Z)-4e]          96

----------
test system: SW620D cells (doxorubicin-resistant); experiment: Neutral red uptake viability assay, SW620D; format: cell-based, human; conditions: 1 μM, 72 h, n = 3, ± SD
# survival rate values compiled below
quantity: survival rate (%)

> print(dat)
                                   molecule  unit.info  meas.value
1  O=C1N/C(=C/c2ccccc2)C(=O)N2CCC[C@@H]12 [(S,E)-4e]          %          96
2  O=C1N/C(=C\c2ccc(-[c-]3cccc3)cc2)C(=O)N2CCC[C@@H]12.[Fe+2].c1cc[cH-]c1 [(S,Z)-4d]          %          92
3  O=C1N/C(=C\[c-]2cccc2)C(=O)N2CCC[C@@H]12.[Fe+2].c1cc[cH-]c1 [(S,Z)-4a]          %          96
